target: HCV NS3/4A PR (S139A) (Hepatitis C virus subtype 1a, UniProt A8DG50, A1066T/I1043Q/I1044E/L1039E/L1040E/L1047Q/S1165A, form not given); experiment: Biacore 8K binding kinetics of PRSIM binding molecules; settings: 10 nM simeprevir present
property_label: ka (M⁻¹ s⁻¹)
Please state the figure in M⁻¹ s⁻¹; there is no need to write the unit.

Which measured ka value corresponds to PRSIM_33: Tn3 PRSIM binding molecule, SEQ ID NO: 7 (protein, PRSIM_33) RLDAPSQIEVKDVTDTTALITWYPPGRWYDDIWYFELTYGIKDVPGDRTTIKLARGDDVYSIGNLKPDTEYEVSLISWGPDRGDRAGSNPAKITFKTGL ?
3.65e+06

Now consider PRSIM_36: Tn3 PRSIM binding molecule, SEQ ID NO: 8 (protein, PRSIM_36) RLDAPSQIEVKDVTDTTALITWSWPRDDDYDIWYFELTYGIKDVPGDRTTIKLLNYASPYSIGNLKPDTEYEVSLISVVPDTYGRGTSNPAKITFKTGL and answer again.
5.15e+06

Now consider PRSIM_04: scFv PRSIM binding molecule, SEQ ID NO: 11 (protein, PRSIM_04) scFv: QVQLVQSGAEVKKPGSSVKVSCKASGGTFSSYAISWVRQAPGQGLEWMGGIIPIFGTANYAQKFQGRVTITADESTSTAYMELSSLRSEDTAVYYCARGMAHFYQFDLWGQGTLVTVSSGGGGSGGGGSGGGGSAQSVLTQPPSASGTPGQRVTISCSGSSSNIGSNTVNWYQQLPGTAPKLLIYSNNQRPSGVPDRFSGSKSGTSASLAISGLQSEDEADYYCAAGDHDHEHVVFGGGTKLTVL and answer again.
1.74e+07

Now consider PRSIM_67: scFv PRSIM binding molecule, SEQ ID NO: 13 (protein, PRSIM_67) scFv: EVQLVQSGAEVKKPGAAVRISCKTSGYVFTSYYVHWVRQAPGQGLEWMGVINPSGGNTNYAQKFQDRVTMTRDTSTTTVYMELSSLMFDDTAVYYCAKRDYGGPLANWGRGTLVTVSSGGGGSGGGGSGGGGSALSYELTQPPSVSEAPRQRVTISCSGSSSNIGNNAVNWYQQLPGKAPKLLIFYDDLLPSGVSDRFSGSKSGTSASLAISGLQSEDEADYYCAAWDDSLNGLVFGTGTKLTVL and answer again.
1.97e+07

Now consider PRSIM_75: scFv PRSIM binding molecule, SEQ ID NO: 15 (protein, PRSIM_75) scFv: EVQLVQSGAEVKKPGSSVKVSCKASGGSFNSYTLDWVRQAPGQGLEWMGGIIPVFGSPNYGQKFQGRVTITADESTSTAYMELSSLKSDDTAVYYCARGLVYQPLDSWGRGTLVTVSSGGGGSGGGGSGGGGSAQAVLTQPSSASGTPGQRVTISCSGSSSNIGSYTVNWYQQFPGTAPKLLIYSNTQRPSGVPDRFSGSKSGTSASLAISGLQSEDEADYYCAAWDDSLNGWVFGGGTKVTVL and answer again.
9.09e+06

Now consider PRSIM_57: scFv specific for HCV NS3/4A PR (S139A):simeprevir complex, SEQ ID NO: 12 (protein, PRSIM_57) scFv: QVQLVQSGAEVKKPGSSVKVSCKASGGTFSSYAISWVRQAPGQGLEWMGGIIPIFGTANYAQKFQGRVTITADESTSTAYMELSSLRSEDTAVYYCARHTNYITVFDYWGQGTLVTVSSGGGGSGGGGSGGGGSAQSVLTQPPSASGTPGQRVTISCSGSSSNIGSNTVNWYQQLPGTAPKLLIYSNNQRPSGVPDRFSGSKSGTSASLAISGLQSEDEADYYCAAWDHHWEQVVFGGGTKLTVL and answer again.
1.73e+07

Now consider PRSIM_23: Tn3 protein specific for HCV NS3/4A PR (S139A):simeprevir complex, SEQ ID NO: 5 (protein, PRSIM_23) RLDAPSQIEVKDVTDTTALITWVDPRYDDIWWFELTYGIKDVPGDRTTIKLYLNDPYYSIGNLKPDTEYEVSLISYTGDSYSRSGSNPAKITFKTGL and answer again.
5.03e+06

Now consider PRSIM_47: Tn3 PRSIM binding molecule, SEQ ID NO: 9 (protein, PRSIM_47) RLDAPSQIEVKDVTDTTALITWSRPGVSIWYFELTYGIKDVPGDRTTIKLDYRSYYYSIGNLKPDTEYEVSLISGSYGLVGVRASNPAKITFKTGL and answer again.
1.32e+10

Now consider PRSIM_72: scFv PRSIM binding molecule, SEQ ID NO: 14 (protein, PRSIM_72) scFv: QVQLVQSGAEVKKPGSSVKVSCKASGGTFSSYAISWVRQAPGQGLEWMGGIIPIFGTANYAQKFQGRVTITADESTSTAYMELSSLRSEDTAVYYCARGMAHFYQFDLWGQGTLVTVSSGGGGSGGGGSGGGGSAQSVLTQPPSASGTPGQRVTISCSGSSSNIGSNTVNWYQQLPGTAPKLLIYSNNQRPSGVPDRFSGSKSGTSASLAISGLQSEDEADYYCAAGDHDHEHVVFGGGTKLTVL and answer again.
1.18e+06
